Where do these numbers come from? They come from ChEMBL document CHEMBL1145606.

Test system: Haemonchus contortus
Assay: Anthelmintic activity against benzimidazole-resistant Haemonchus contortus isolate by larva development assay
Assay type: functional
PARAMETER MEASURED: EC100 (ppm)
The response must be a number in ppm with no trailing unit.

Any idea what EC100 was measured for CC(C#N)(COc1ccccc1Cl)NC(=O)c1ccc(F)cc1 (configuration not stated) ?
3.2

CC(C#N)(COc1cc(C#N)ccc1C(F)(F)F)NC(=O)c1ccc(SC(F)(F)F)cc1 (configuration not stated) , same question.
0.01

CC(C#N)(COc1ccc(C#N)cc1C(F)(F)F)NC(=O)c1ccc(SC(F)(F)F)cc1 (configuration not stated) , same question.
0.032

CC(C#N)(COc1cc(F)ccc1Cl)NC(=O)c1ccc(OC(F)(F)F)cc1 (configuration not stated) , same question.
0.01

"C[C@@](C#N)(COc1cc(C#N)ccc1C(F)(F)F)NC(=O)c1ccc(SC(F)(F)F)cc1" , same question.
10

CC(C#N)(COc1ccccc1Cl)NC(=O)c1ccc(OC(F)(F)F)cc1 (configuration not stated) , same question.
0.032

* * *

Test system: Haemonchus contortus
Assay: Anthelmintic activity against Haemonchus contortus infected in gerbils assessed as reduction in worm count at 1 mg/kg, sc
Assay type: functional
Design: scale not given: the % may be the effect or the level left
Settings: route subcutaneous
Rule: TRUE for Activity not less than 90%, FALSE for anything less.

Hi team, for CC(C#N)(COc1cc(F)c(F)cc1C(F)(F)F)NC(=O)c1ccc(OC(F)(F)F)cc1 (stereo in doubt; 19) , is the recorded Activity at or above 90%?
TRUE

CC(C#N)(COc1cc(C#N)ccc1C(F)(F)F)NC(=O)c1ccc(OC(F)(F)F)cc1 (stereo not drawn) , same question.
TRUE

CC(C#N)(COc1cc(F)c(F)cc1C(F)(F)F)NC(=O)c1ccc(C(F)(F)F)cc1 (stereo not drawn) , same question.
TRUE

CC(C#N)(COc1cc(F)c(F)cc1C(F)(F)F)NC(=O)c1ccc(SC(F)(F)F)cc1 (stereo not drawn) , same question.
FALSE

CC(C#N)(COc1cc(C#N)ccc1C(F)(F)F)NC(=O)c1ccc(SC(F)(F)F)cc1 (stereo not drawn) , same question.
TRUE

* * *

Test system: Haemonchus contortus
Test: Anthelmintic activity against Haemonchus contortus infected in gerbils assessed as reduction in worm count at 1 mg/kg, sc
Type: functional
Set-up: scale not given: the % may be the effect or the level left
Settings: route subcutaneous
PARAMETER MEASURED: Activity
A complete answer gives the number and then names the unit.

Reported Activity for Haemonchus contortus, given CC(C#N)(COc1ccc(C#N)cc1C(F)(F)F)NC(=O)c1ccc(OC(F)(F)F)cc1 (stereo not drawn) ?
91%

CC(C#N)(COc1ccc(C#N)cc1C(F)(F)F)NC(=O)c1ccc(SC(F)(F)F)cc1 (stereo not drawn) , same question.
92%

CC(C#N)(COc1cc(C#N)ccc1C(F)(F)F)NC(=O)c1ccc(C(F)(F)F)cc1 (stereo not drawn) , same question.
90%
